test target: NaV1.7 (Homo sapiens, UniProt Q15858)
Construct: expressed in transfected cells; host or cells: HEK293 (tetracycline-inducible)
Sequence (Q15858 whole entry): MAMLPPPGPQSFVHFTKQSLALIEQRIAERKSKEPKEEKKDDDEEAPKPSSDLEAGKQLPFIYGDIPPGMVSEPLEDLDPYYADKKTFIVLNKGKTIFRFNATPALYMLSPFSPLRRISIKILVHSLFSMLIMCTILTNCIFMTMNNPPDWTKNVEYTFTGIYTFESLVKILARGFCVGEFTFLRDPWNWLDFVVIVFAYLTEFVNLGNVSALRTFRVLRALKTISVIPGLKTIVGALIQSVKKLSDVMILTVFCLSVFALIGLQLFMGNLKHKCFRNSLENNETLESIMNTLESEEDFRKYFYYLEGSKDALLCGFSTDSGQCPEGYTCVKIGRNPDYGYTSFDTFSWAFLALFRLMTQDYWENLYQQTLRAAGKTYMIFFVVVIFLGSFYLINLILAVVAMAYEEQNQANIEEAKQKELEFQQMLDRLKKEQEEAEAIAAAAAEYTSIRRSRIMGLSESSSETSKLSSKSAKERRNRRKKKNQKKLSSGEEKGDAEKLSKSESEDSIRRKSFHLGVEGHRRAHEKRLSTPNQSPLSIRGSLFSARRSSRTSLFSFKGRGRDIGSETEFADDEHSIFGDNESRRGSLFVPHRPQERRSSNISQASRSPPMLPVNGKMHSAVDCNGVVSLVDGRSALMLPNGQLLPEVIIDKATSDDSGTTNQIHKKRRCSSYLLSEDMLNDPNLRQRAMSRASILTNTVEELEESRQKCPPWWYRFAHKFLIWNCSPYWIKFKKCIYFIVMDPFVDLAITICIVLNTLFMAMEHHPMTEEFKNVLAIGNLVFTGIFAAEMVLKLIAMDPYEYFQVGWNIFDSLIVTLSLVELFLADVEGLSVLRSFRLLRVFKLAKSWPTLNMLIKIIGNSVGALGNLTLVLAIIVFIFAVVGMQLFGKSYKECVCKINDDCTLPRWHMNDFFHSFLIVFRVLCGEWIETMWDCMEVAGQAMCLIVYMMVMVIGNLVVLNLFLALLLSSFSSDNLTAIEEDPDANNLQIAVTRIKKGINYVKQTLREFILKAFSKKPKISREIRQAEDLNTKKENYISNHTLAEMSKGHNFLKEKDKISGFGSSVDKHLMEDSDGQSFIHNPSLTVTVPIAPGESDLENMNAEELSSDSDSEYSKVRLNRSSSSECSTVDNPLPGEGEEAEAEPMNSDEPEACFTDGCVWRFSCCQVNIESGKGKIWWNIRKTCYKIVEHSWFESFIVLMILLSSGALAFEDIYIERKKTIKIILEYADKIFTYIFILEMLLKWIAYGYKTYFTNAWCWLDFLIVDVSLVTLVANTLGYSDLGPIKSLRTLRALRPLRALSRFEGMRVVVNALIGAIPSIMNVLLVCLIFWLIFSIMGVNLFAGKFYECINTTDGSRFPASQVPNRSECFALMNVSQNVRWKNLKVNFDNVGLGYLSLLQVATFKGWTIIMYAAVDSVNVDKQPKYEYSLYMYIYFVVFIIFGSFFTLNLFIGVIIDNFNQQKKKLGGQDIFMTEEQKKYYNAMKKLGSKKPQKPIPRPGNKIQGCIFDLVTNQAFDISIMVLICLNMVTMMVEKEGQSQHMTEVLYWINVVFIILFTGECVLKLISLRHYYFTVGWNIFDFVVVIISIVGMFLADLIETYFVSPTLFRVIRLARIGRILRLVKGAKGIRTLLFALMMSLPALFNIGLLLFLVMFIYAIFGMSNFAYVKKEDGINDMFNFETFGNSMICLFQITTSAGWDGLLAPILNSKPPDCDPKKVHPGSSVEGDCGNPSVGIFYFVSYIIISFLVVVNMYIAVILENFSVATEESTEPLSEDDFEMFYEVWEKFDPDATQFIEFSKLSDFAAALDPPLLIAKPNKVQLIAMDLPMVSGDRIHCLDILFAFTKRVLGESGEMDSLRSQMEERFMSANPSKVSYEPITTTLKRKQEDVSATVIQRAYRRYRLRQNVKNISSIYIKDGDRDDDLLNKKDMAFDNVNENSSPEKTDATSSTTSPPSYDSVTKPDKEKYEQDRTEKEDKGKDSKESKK
method summary: Manual patch clamp, external block of NaV1.7 current
Type: cell-based
reported conditions: % inhibition at 10 μM test concentration, compound in external solution, HEK293 cells, read-out: Nav1.7 Extracellular Inhibition
Record form. Attribute: inhibition at 10 µM. Fill in for each entry.

Item Cc1cccc(-c2ccccc2)c1NC(=O)C[N+]1(Cc2ccccc2)CCCCCC1.[Br-] [Compound 76A] was tested on NaV1.7 (Homo sapiens, UniProt Q15858); the reported inhibition at 10 µM is 40 to 70%

Simply: [2H]c1c([2H])c([2H])c(C[N+]2(CC(=O)Nc3c(C)cccc3C)CCCCCC2)c([2H])c1[2H].[Cl-] [Compound 33A] , NaV1.7 (Homo sapiens, UniProt Q15858), inhibition at 10 µM = 40 to 70%

The observed inhibition at 10 µM for CC[N+](CC)(CCCc1ccccc1)CC(=O)Nc1c(C)cccc1C.[Br-] [Compound 86A] when tested with NaV1.7 (Homo sapiens, UniProt Q15858) stands at < 40%

The molecule CCc1cccc(C)c1NC(=O)C[N+]1(Cc2ccccc2)CCCCCC1 [Compound 70A] , tested on NaV1.7 (Homo sapiens, UniProt Q15858), showed inhibition at 10 µM of 40 to 70%

Measured inhibition at 10 µM (NaV1.7 (Homo sapiens, UniProt Q15858)), entry CCC(=O)Oc1cccc(C)c1NC(=O)C[N+]1(Cc2ccccc2)CCCCCC1.[Br-] [Compound 80A] : < 40%

Considering COC(=O)c1cccc(C[N+]2(CC(=O)Nc3c(C)cccc3C)CCCCC2)c1.[Br-] [Compound 35A] , its inhibition at 10 µM with NaV1.7 (Homo sapiens, UniProt Q15858) was recorded as < 40%

Recorded inhibition at 10 µM for Cc1cccc(C)c1N1CCC([N+]2(Cc3ccccc3)CCCCCCC2)C1=O.[Br-] (stereo not drawn) [Compound 90A] on NaV1.7 (Homo sapiens, UniProt Q15858) was < 40%

The reported NaV1.7 (Homo sapiens, UniProt Q15858) inhibition at 10 µM of Cc1cccc(F)c1NC(=O)C[N+]1(Cc2ccccc2)CCCCCC1.[Br-] [Compound 69A] is < 40%

// inhibition at 10 µM (NaV1.7 (Homo sapiens, UniProt Q15858)) for CCCOC(=O)C1CCC[N+](CC(=O)Nc2c(C)cccc2C)(Cc2ccccc2)C1.[Br-] (stereo not drawn) [Compound 47A] = 40 to 70%
